Molecular target: Left-right determination factor 2 (Homo sapiens) (UniProt O00292)
Sequence (O00292 whole entry, looked up): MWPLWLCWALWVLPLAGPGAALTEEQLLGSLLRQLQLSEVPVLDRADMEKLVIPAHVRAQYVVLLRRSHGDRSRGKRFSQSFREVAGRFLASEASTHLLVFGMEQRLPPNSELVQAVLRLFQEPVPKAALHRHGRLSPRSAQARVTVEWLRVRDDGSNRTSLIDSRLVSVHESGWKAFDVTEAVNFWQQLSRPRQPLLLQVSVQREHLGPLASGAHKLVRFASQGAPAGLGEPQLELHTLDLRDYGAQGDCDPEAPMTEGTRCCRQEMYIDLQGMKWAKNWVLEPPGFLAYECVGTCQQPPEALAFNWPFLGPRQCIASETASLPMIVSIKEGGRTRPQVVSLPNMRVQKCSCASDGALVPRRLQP
Test: LEFTY2 binders on small-molecule microarrays, primary screen, biochemical, small-molecule microarray, 635 nm fluorescence scan (AID 1110)
Conditions: LEFTY2 binding, higher = more signal
Mark Criterion met for reported composite z-score of -0.3 or greater; mark Criterion not met for anything smaller.

Observe how each entry below is paired with its result.
molecule	category
C[N+](C)(C)CCCC[C@@H]1NC(=O)[C@@H]2C[C@H](C(=O)NCCCCCNC(=O)CS)[C@H](c3ccc(O)cc3)N2C1=O	Criterion not met
NC(=O)N1C(=O)C2C(C1=O)C1C=C(c3ccc(CO)cc3)C2C(C2CC2)N1Cc1cc2c(cc1Br)OCO2 (stereo not drawn)	Criterion met
CC(C)C(=C=CC[C@@H](O)c1ccc(CO)o1)CCO	Criterion met
C=C(/C(=C/C[C@H](OC(=O)c1ccncc1)c1cccc(OCCO)c1)c1cc(C(=O)OC)ccc1OC)C(C)C	Criterion met

## Input Does "CCOC(=O)C[C@H]1[C@H](OC(=O)c2ccc(-c3ccccc3)cc2)[C@@H](NC(=O)C2CCCCC2)c2cc(OCCCO)ccc2N1C(=O)c1ccc2ccccc2n1" have a reported composite z-score of at least -0.3?
## Output Criterion met

## Input Does "C[N+](C)(C)CCCC[C@@H]1NC(=O)[C@H]2C[C@@H](C(=O)NCCCCCN)[C@@H](c3cccc(OCCO)c3)N2C1=O" have a reported composite z-score of at least -0.3?
## Output Criterion not met

## Input Does "CC(C)C[C@@H]1NC(=O)[C@@H]2C[C@H](C(=O)NCCCCCNC(=O)CS)[C@H](c3cccc(OCCO)c3)N2C1=O" have a reported composite z-score of at least -0.3?
## Output Criterion met

## Input Does "[N-]=[N+]=NCc1ccccc1C[C@@]1(C(=O)O)N=C(c2ccc(OCCCO)cc2)O[C@@H]1c1ccccc1" have a reported composite z-score of at least -0.3?
## Output Criterion not met
